System: HCT-116
ASSAY TEXT: NCI tumour cell line growth inhibition, 48 h
The source made the active and inactive calls. No stated cut-off is given here; in the data, active = GI50 up to about 1.1 µM and inactive = higher.
Return exactly one item of Yes = active, No = inactive

Past entries and their recorded results:
| COMPOUND | GROUP LABEL |
| --- | --- |
| C[C@]12CC[C@H]3[C@@H](CC[C@]4(O)C[C@@H](O)CC[C@]34CO)[C@@]1(O)CC[C@@H]2C1=CC(=O)OC1 | Yes |
| CCOC(=O)COc1ccc(/C=C/C(=O)c2ccc(OC)cc2)cc1 | No |
| CCOC(=O)C(Cc1ccccc1)NC(=O)c1nc[nH]c1/N=N/N(C)C (centres undefined) | No |

From here, focus on the item given below.
Request: Given COC(=O)C1=C(C(=O)OC)C23CC4CCC2(C(=O)C1O3)C4(C)C (centres undefined) , state the outcome it received in this test.
Response: No

* * *

Reported GI50 values for a set of compounds
Test system: SNB-19
ASSAY TEXT: NCI tumour cell line growth inhibition, 48 h
The source made the active and inactive calls. Rule as the data show it: active = GI50 up to about 1.1 µM and inactive = higher.

Past entries and their recorded results:
| COMPOUND | ENDPOINT RESULT |
| --- | --- |
| CCOC(=O)CCCc1cc(O)c2c(C)c3[nH]c4ccc(Cl)cc4c3c(C)c2n1 | 23.7 µM (inactive) |
| CCOC(OCC)C(CC)[Se]c1ccccc1[N+](=O)[O-] (centres undefined) | 3.75 µM (inactive) |
| CCOP(=O)(OCC)C(C(=O)OC)C(=O)C(=O)Nc1ccc(Cl)cc1Cl (centres undefined) | > 100 µM (inactive) |
| O=C(CCl)Nc1ccc(-c2nc3ccccc3s2)cc1 | 2.4 µM (inactive) |
| Cc1nc2ccc(/N=N/N(C)C)cc2[nH]1 | > 100 µM (inactive) |

What the record says about CCN(CC)CCNC(=O)c1nn(C)c(=S)[nH]c1=S : GI50 is > 100 µM (inactive)

# GI50 (compound: NCC(=O)NC1(c2cc3ccccc3s2)CCCCC1 ) is > 100 µM (inactive)

Documented GI50 of O=[N+]([O-])/C(Cl)=C(\NCCN/C(C(Cl)=C(Cl)Cl)=C(/Cl)[N+](=O)[O-])C(Cl)=C(Cl)Cl : 92.9 µM (inactive)

The compound identified as CC1(C)[C@H]2Cc3cc(-c4cc5c(cn4)[C@@H]4C[C@H]([C@@H]5[C@@H]5c6cc(-c7cc8c(cn7)[C@@H]7C[C@H](C8)C7(C)C)ncc6[C@@H]6C[C@H]5C6(C)C)C4(C)C)ncc3[C@@H]1C2 registered its GI50 at > 100 µM (inactive)

* * *

Tested on: OVCAR-8
ASSAY TEXT: NCI tumour cell line growth inhibition, 48 h
Active and inactive are the calls of the source. Rule as the data show it: active = GI50 up to about 1.1 µM and inactive = higher.
Field 'call' accepts active, inactive

These recorded examples may help you get a feel for the data.
| COMPOUND | TESTED TARGET | GROUP LABEL |
| --- | --- | --- |
| CN1CCc2[nH]c3ccccc3c2C1 | OVCAR-8 | inactive |
| COc1cc2c(cc1O)C1CC(CC3CCCCN31)OC(=O)/C=C\c1ccc(O)c-2c1 (configuration not stated) | OVCAR-8 | inactive |
| Nc1nc(SCC(=O)c2ccccc2)c2[nH]cnc2n1 | OVCAR-8 | inactive |
| CS(=O)(=O)Sc1ccc(Cl)cc1 | OVCAR-8 | inactive |
| CCOC(OCC)C(CC)[Se]c1ccccc1[N+](=O)[O-] (configuration not stated) | OVCAR-8 | inactive |

Request: What is the recorded call for this compound in the test? N#Cc1c(-c2nc3ccccc3s2)c(=O)oc2cc(O)ccc12
Response: inactive

Request: Per the assay record, what outcome was assigned to O=C1NC2=NN=C(c3ccc(Br)cc3)CN2NC12c1ccccc1-c1ccccc12 ?
Response: inactive

Request: Any idea what this test logged for CC[C@@]1(C[C@H]2C[C@@]3(C(=O)OC)c4[nH]c5ccccc5c4CCN3C2=O)COC2(CCCCC2)O1 ?
Response: inactive

Request: Test call for this compound, please: COc1ccc(/C=N/c2ccc(-c3nc4ccccc4s3)cc2)cc1OC
Response: inactive

Request: Hello, I am checking results. What call was entered for Cn1cc(-c2n[nH]c(-c3ccc(Cl)cc3)nc2=O)c2ccccc21 ?
Response: inactive

Request: Called result for CC(C)(C)[Si](C)(C)OCC1C=CC(n2cnc3c(N)ncnc32)O1 (configuration not stated)
Response: inactive

Request: Please let me know the test result on file for O=C(/C=C/C=C/c1ccccc1)c1ccc2c(c1)CCCC2 .
Response: inactive

Request: Would you mind telling me which call this test gave Nc1nc(Cl)c2ncn(CCCC(c3ccccc3)P(=O)(O)O)c2n1 (configuration not stated) ?
Response: inactive

Request: Recorded test outcome, item Cc1ccc(N(C)S(=O)(=O)c2ccccc2[N+](=O)[O-])cc1
Response: inactive

Request: Write down the call the test reported for this compound. Item: Cc1cc2c(cc1C)C(=O)/C(=C/c1ccccc1C(=O)O)C2
Response: inactive

Request: Outcome? CCCc1c(C(=O)OCC)[nH]c(-c2ccc(-c3[nH]c(C(=O)OCC)c(CCC)c3C(=O)OCC)s2)c1C(=O)OCC
Response: inactive

Request: Which outcome was assigned to O=C(CCl)Nc1ccc(-c2nc3ccccc3s2)cc1 in this test?
Response: inactive

Request: Could you kindly confirm the outcome this assay logged for Cc1c(C)c(C)c(CSC(=N)N)c(C)c1C ?
Response: inactive

Request: // return assay outcome for CCOC(=O)N/N=C(/N)Cc1ccc(Cl)cc1
Response: inactive

Request: Assay outcome for N#Cc1c(N2CCN(c3ccc([N+](=O)[O-])cc3)CC2)[n+]([O-])c2ccccc2[n+]1[O-] : what was it?
Response: inactive

Request: Hi team, can someone confirm the assay call for COc1ccc(C(=O)C=C2NCCN2)cc1 ?
Response: inactive

Request: Look up the recorded call for COc1ccc(N2C(=O)CC(Cl)C2=O)cc1 (configuration not stated) in this test.
Response: inactive

Request: Field: outcome | Entry: CN(C)CCCn1c(Cc2ccc(Cl)cc2)nc2cc(C(F)(F)F)ccc21
Response: inactive

Request: Please let me know the test result on file for O=C(CCCCCCCCC(=O)OCCCn1cc(C(=O)NC(=O)OCc2ccccc2)c(=O)[nH]c1=O)OCCCn1cc(C(=O)NC(=O)OCc2ccccc2)c(=O)[nH]c1=O .
Response: inactive

Request: Which outcome did this test record for the compound Cc1ccc(NC(=O)C(=O)CC(=O)c2c(C)[n+]([O-])c3ccccc3[n+]2[O-])cc1 ?
Response: inactive

Request: For C=CCc1cc(OC)c2c(c1)C(O)CC(c1ccc(OC)c(OC)c1)O2 (configuration not stated) , which call appears in the assay record?
Response: inactive

Request: Hey, what did the test say about CC(C)(C)OC(=O)N/N=C(/N)c1ccccc1 ?
Response: inactive

Request: Lab log entry: Cc1ccc(S(=O)(=O)N[C@@H](Cc2ccccc2)C(=O)CCl)cc1 [TPCK] — outcome as called in the assay?
Response: inactive

Request: What outcome does the record of this test show for Cc1ccc(NC(=O)NC(=O)c2ccc([N+](=O)[O-])cc2[N+](=O)[O-])cc1Oc1ncc(Cl)cn1 ?
Response: active

Request: Record lookup: outcome of this test for Oc1ccccc1CNCc1ccccc1O ?
Response: inactive

* * *

Tested on: SW-620
ASSAY TEXT: NCI tumour cell line growth inhibition, 48 h
Calls of active or inactive are those of the source. Rule as the data show it: active = GI50 up to about 1.1 µM and inactive = higher.
Reported GI50 values follow for various molecules

Consider O=[N+]([O-])/C(Cl)=C(\NCCN/C(C(Cl)=C(Cl)Cl)=C(/Cl)[N+](=O)[O-])C(Cl)=C(Cl)Cl . Its measured GI50 is 47.5 µM (inactive)

Short answer for CC1=Nn2c(nnc2-c2ccc(N)cc2)NC(C)(C)C1 : GI50 was > 100 µM (inactive)

Lab note: measured GI50 of COc1ccc(C2=NN(C(C)=O)c3nc4ccccc4nc3O2)cc1 was > 100 µM (inactive)

Form: molecule = Cc1ccc(S(=O)(=O)N[C@@H](Cc2ccccc2)C(=O)CCl)cc1 [TPCK] ; GI50 = 11.5 µM (inactive)

Noted for O=C(NC1CCN(Cc2ccccc2)CC1)c1ccc(I)cc1 : its GI50 reads > 100 µM (inactive)

Data point: Cc1cccc(C(C)O)n1 (stereo unspecified) ; GI50 = > 100 µM (inactive)

* * *

Test system: HCT-116
ASSAY TEXT: NCI tumour cell line growth inhibition, 48 h
Calls of active or inactive are those of the source. Rule as the data show it: active = GI50 up to about 1.1 µM and inactive = higher.
Here the recorded GI50 is given for each entry.

For orientation, consider the following solved cases.
| COMPOUND | GI50 |
| --- | --- |
| CC(C)(C)OC(=O)N/N=C(/N)c1ccccc1 | > 100 µM (inactive) |
| CC1CCCC2=C1C(c1ccc(Cl)cc1)n1c(s/c(=C\c3ccc(Cl)cc3)c1=O)=N2 (stereo unspecified) | > 100 µM (inactive) |
| C=CCN1C(=O)/C(=C/c2ccc(OC)cc2)N=C1SC1OC(COC(C)=O)C(OC(C)=O)C(OC(C)=O)C1OC(C)=O (stereo unspecified) | 30.8 µM (inactive) |
| CC(C)(C)OC(=O)C1/C(=C/CBr)CN1C(=O)OC(C)(C)C (stereo unspecified) | 11.4 µM (inactive) |
| COc1ccc(Nc2nc3cc(C(F)(F)F)ccc3nc2-c2ccccc2)cc1OC | 12.6 µM (inactive) |

Now turn to the next compound.
Tested system HCT-116; GI50 recorded for N#CC1(N2CCCC2)CCC2(CC1)OCCO2 was > 100 µM (inactive)
